Target: human activated kallikrein enzyme (Homo sapiens, UniProt P03952)
Sequence (P03952 391-638 limits assumed): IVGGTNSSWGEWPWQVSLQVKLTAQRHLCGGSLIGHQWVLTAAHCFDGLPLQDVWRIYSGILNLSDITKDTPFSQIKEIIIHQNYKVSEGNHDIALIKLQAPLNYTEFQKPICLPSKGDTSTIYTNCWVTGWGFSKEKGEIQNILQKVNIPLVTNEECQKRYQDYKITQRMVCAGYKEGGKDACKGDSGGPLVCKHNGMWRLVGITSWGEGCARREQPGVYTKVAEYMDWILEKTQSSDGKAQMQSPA
Sequence (P03952 20-390 partner limits assumed): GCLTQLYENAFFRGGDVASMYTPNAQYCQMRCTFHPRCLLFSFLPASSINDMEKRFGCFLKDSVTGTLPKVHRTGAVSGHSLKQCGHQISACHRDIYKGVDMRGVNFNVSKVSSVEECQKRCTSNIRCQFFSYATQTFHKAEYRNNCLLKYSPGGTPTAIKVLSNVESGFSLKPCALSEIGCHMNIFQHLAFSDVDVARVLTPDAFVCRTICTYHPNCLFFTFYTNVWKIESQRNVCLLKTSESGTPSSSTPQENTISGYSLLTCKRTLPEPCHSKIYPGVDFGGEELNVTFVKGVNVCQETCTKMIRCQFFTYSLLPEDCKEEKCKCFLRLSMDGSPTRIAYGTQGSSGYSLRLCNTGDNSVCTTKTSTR
Assay: Inhibition of human activated kallikrein enzyme, fluorogenic peptide substrate assay (500 pM enzyme format)
Details: 500 pM activated kallikrein, 300 μM PFR-AMC substrate, 30 min preincubation, 10 min reaction, room temperature; read-out: Primary Dose Response Assay: Average EC50
Experimental: Compounds were evaluated for inhibition of the human activated kallikrein enzyme in two formats of an assay employing a fluorogenic peptide substrate. […] After initiation with substrate, reactions were incubated for 10 min at room temperature and fluorescence emission at 460 nm from 380 nm excitation measured with a microplate reader. […]
# EC50 per record follows

MOLECULE	EC50
O=C(Cc1nncc2ccc(Cl)cc12)Nc1cc(NCc2cn3cc(C4CC4)ccc3n2)ncn1	5 to 50 nM
C[C@H](C(=O)Nc1cc(NCc2cn3cc(C4CC4)ccc3n2)ncn1)[C@@H](C)c1cccc(Cl)c1	> 9000 nM
N#C/N=C(\NCc1cccc(Cl)c1)Nc1cc(NCc2cn3cc(C4CC4)ccc3n2)ccn1	500 to 9000 nM
O[C@H]1C[C@H](c2cn3cc(C4CC4)ccc3n2)N(c2cc(NCc3cc4cc[nH]c4cc3F)ncn2)C1	500 to 9000 nM
O=C(CNc1cc(Cl)ccc1-n1cnnn1)Nc1cc(NCc2cn3cc(C4CC4)ccc3n2)ccn1	5 to 50 nM
O=C(Cn1cnc2ccc(Cl)cc21)Nc1cc(NCc2cn3cc(C4CC4)ccc3n2)ccn1	500 to 9000 nM

Read the next record carefully.
**Q:** Entry CC(O)(C(=O)Nc1cc(NCc2cn3cc(C4CC4)ccc3n2)ncn1)c1ncn2ccc(Cl)c(F)c12 (stereo not shown) : reported EC50 = ?
**A:** > 9000 nM
